target: ASK1 T838 auto phosphorylation (Homo sapiens, UniProt Q99683)
Sequence (Q99683 whole entry): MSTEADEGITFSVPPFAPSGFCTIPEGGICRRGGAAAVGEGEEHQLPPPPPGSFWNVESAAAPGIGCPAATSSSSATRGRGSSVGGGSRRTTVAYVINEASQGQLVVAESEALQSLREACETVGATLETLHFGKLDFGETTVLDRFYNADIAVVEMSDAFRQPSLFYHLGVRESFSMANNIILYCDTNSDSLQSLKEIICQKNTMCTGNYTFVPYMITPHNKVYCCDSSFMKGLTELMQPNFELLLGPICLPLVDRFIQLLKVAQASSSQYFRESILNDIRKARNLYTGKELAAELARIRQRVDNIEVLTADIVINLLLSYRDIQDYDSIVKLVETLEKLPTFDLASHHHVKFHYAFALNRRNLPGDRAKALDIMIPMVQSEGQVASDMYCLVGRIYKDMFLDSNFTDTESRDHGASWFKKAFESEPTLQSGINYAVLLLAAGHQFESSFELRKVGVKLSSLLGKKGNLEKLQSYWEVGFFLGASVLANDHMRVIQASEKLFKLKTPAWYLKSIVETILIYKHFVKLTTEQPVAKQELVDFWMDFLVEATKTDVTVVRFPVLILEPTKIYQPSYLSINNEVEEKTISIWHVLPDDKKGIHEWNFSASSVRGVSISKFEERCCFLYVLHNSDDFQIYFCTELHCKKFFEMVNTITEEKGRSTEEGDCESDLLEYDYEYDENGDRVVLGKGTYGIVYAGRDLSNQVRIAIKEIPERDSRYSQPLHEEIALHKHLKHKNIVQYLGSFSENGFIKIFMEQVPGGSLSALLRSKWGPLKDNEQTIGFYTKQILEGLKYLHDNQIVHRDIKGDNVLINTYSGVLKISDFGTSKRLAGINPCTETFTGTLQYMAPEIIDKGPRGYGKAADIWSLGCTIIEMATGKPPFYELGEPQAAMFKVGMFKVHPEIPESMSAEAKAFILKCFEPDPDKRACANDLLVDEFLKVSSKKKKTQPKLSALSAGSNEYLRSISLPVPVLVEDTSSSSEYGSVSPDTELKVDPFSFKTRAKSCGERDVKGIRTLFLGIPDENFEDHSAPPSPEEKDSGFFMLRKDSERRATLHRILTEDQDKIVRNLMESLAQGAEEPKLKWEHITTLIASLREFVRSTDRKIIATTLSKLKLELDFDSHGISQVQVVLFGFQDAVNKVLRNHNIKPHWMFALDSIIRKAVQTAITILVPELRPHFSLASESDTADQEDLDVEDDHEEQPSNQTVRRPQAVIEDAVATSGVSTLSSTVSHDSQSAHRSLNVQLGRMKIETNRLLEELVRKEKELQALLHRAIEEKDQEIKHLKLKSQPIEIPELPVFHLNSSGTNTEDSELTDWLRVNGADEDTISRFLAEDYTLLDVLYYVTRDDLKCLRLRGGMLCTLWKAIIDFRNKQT
experimental.details: ASK1 (AUTO PHOS T838) assay, MSD format, in HEK-293T cells transfected with ASK1-V5
condition.context: ASK1 T838 auto phosphorylation in HEK-293T cells, 1 hr compound incubation; class symbols
pIC50: −log10 of the molar value.
compounds and their reported pIC50

// solved cases for pIC50 follow
INSERT INTO measurements (compound, target, measure_name, val) VALUES
  ('CC(C)n1cnnc1-c1cccc(NC(=O)c2cn(C)nc2C(F)(F)F)n1', 'ASK1 T838 auto phosphorylation (Homo sapiens, UniProt Q99683)', 'pIC50', '5.00 to 6.00'),
  ('COC[C@H](C)n1cnnc1-c1cccc(NC(=O)c2cn(C)nc2OC)n1 (single isomer, unassigned)', 'ASK1 T838 auto phosphorylation (Homo sapiens, UniProt Q99683)', 'pIC50', '≥ 6.00'),
  ('COc1nn(C)cc1C(=O)Nc1cccc(-c2nncn2C(C)C(F)(F)F)n1 (stereo not shown)', 'ASK1 T838 auto phosphorylation (Homo sapiens, UniProt Q99683)', 'pIC50', '≥ 6.00');

Moving on to the next compound.
Lab book: pIC50 of "COCCn1cc(C(=O)Nc2cccc(-c3cncn3C(C)C)n2)c(OC)n1" noted as ≥ 6.00

###

target: ASK1/MAP3K5 (Homo sapiens, UniProt Q99683)
Sequence (Q99683 whole entry): as above
experimental.details: ASK1/MAP3K5 kinase assay by Reaction Biology Corp. (headed ASK1 TR-FRET Assay)
Type: biochemical
condition.context: 20 μM myelin basic protein, 10 μM ATP, class symbols
Each record here notes measured IC50.

Use these answered entries as a reference point.
INSERT INTO assay_data (compound, val) VALUES
  ('COc1nn(-c2cccnn2)cc1C(=O)Nc1cccc(-c2nncn2[C@H](C)C(F)(F)F)n1', '0.1 to 1 µM'),
  ('COCCn1cc(C(=O)Nc2cccc(-c3nncn3[C@H](C)C(F)(F)F)n2)c(OC)n1', '0.1 to 1 µM'),
  ('CC(C)Oc1cncc(-n2cc(C(=O)Nc3cccc(-c4nncn4C(C)C)n3)c(C(F)F)n2)c1', '≤ 0.1 µM'),
  ('CC(C)n1cnnc1-c1cccc(NC(=O)c2cn(-c3cncc(C4CC4)c3)nc2C(F)F)n1', '≤ 0.1 µM'),
  ('COC[C@@H](C)n1cnnc1-c1cccc(NC(=O)c2cn(C)nc2OC)n1 (single isomer, unassigned)', '0.1 to 1 µM'),
  ('CC(C)n1cncc1-c1cccc(NC(=O)c2cn(-c3cncc(N(C)C)c3)nc2C(F)F)n1', '0.1 to 1 µM'),
  ('CC(C)n1cncc1-c1cccc(NC(=O)c2cn(-c3cccnc3)nc2C(F)F)n1', '≤ 0.1 µM');

ASK1/MAP3K5 (Homo sapiens, UniProt Q99683) data for "COc1nn(C)cc1C(=O)Nc1cccc(-c2nncn2[C@@H](C)C(C)C)n1" ; its IC50: ≤ 0.1 µM

###

target: ASK1/MAP3K5 (Homo sapiens)
experimental.details: ASK1/MAP3K5 kinase assay by Reaction Biology Corp. (headed ASK1 TR-FRET Assay)
Format: biochemical
condition.context: 20 μM myelin basic protein, 10 μM ATP, class symbols
measure.name: IC50

Solved cases (7 shown):
INSERT INTO measurements (compound, target, val) VALUES
  ('COc1nn(C)cc1C(=O)Nc1cccc(-c2nncn2C2(C(F)(F)F)CC2)n1', 'ASK1/MAP3K5 (Homo sapiens)', '≤ 100 nM'),
  ('COc1nn(C)cc1C(=O)Nc1cccc(-c2nncn2[C@H](C)CO)n1 (single isomer, unassigned)', 'ASK1/MAP3K5 (Homo sapiens)', '≤ 100 nM'),
  ('CC(C)n1cncc1-c1cccc(NC(=O)c2cn(-c3cncc(O)c3)nc2C(F)F)n1', 'ASK1/MAP3K5 (Homo sapiens)', '≤ 100 nM'),
  ('CC(C)n1cnnc1-c1cccc(NC(=O)c2cn(C)nc2C(F)F)n1', 'ASK1/MAP3K5 (Homo sapiens)', '100 to 1000 nM'),
  ('COc1nn(C)cc1C(=O)Nc1cccc(-c2nncn2C(C)(C)C)n1', 'ASK1/MAP3K5 (Homo sapiens)', '≤ 100 nM'),
  ('C=CCn1cc(C(=O)Nc2cccc(-c3nncn3C(C)C)n2)c(OC)n1', 'ASK1/MAP3K5 (Homo sapiens)', '≤ 100 nM'),
  ('COCc1nn(C)cc1C(=O)Nc1cccc(-c2nncn2[C@@H](C)C(F)(F)F)n1', 'ASK1/MAP3K5 (Homo sapiens)', '100 to 1000 nM');

Let us move to another entry and its IC50.
Recorded result, "COc1nn(C)cc1C(=O)Nc1cccc(-c2nncn2C2CCC2)n1" , IC50: ≤ 100 nM
